system: Z-138; test: cells; details: Homo sapiens, Z-138, 6 h, read-out: AZD5991 6h EC50
readout_name: EC50

Quick one: EC50 for Cc1c2c(nn1C)CSCc1cc(n(C)n1)CSc1cc(c3ccccc3c1)OCCCc1c(C(=O)O)n(C)c3c-2c(Cl)ccc13 (atropisomer, axis not shown; (Ra)) [(Ra)-7] ? > 30 µM

====

tested on: MOLP8; experiment: Caspase-3/7 activation assay; type: cell-based; conditions: Homo sapiens, MOLP-8; caspase activation, Mcl-1-dependent cell line; read-out: MOLP-8, EC50
pEC50: −log10 of the molar value.
readout_name: pEC50

# pEC50 lookup, item Cc1c2c(nn1C)CSCc1cc(n(C)n1)CSc1cc(c3ccccc3c1)OCCCc1c(C(=O)O)[nH]c3c-2cccc13 < 4.50

Same read-out for Cc1c2c(nn1C)CSCc1cc(n(C)n1)CSc1cc(c3ccccc3c1)OCCCc1c(C(=O)O)n(C)c3c-2c(Cl)ccc13 (atropisomer, axis not shown; (Ra)) [(Ra)-7] ? 7.48

Note, next up: Cc1nn(C)c(C)c1-c1cccc2c(CCCOc3cccc4ccccc34)c(C(=O)O)[nH]c12 [Compound 2, reference compound] < 4.50
